- TARGET OF ASSAY: mu opiate receptor (MOR) (Rattus norvegicus, UniProt P33535)
- Construct: from tissue; host or cells: striatum (membrane preparation)
- Sequence (P33535 whole entry): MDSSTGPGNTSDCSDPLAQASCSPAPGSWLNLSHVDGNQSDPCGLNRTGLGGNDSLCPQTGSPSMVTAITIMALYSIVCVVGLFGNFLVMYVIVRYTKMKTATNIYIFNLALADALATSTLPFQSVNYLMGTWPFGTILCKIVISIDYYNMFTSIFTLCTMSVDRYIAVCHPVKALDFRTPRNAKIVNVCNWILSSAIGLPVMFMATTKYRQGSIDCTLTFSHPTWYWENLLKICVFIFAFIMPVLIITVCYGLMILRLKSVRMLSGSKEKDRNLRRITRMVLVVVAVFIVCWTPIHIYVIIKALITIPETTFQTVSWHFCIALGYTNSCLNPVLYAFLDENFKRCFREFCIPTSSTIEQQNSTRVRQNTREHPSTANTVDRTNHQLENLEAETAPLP
- PROTOCOL: MOR agonist activity using [35S]GTPgS binding assay in striatal membranes
- Assay type: biochemical
- PARTICULARS: 0.1 μM compound as agonist; Series C-2 table
Class true: MOR agonist activity ([35S]GTPgS binding to Gao) at least 200%. Class false: MOR agonist activity ([35S]GTPgS binding to Gao) below 200%.

- COMPOUND: "COc1ccc(S(=O)(=O)N2CCOC23CCN(CC2CC2)CC3)cc1 [Compound C0090M]"
  LABEL: "true"

Is MOR agonist activity ([35S]GTPgS binding to Gao) at least 200%? Consider COc1ccc(S(=O)(=O)N2CCOC23CCCNC3)cc1 (stereo not drawn) [Compound C0145M-3]
false

Is MOR agonist activity ([35S]GTPgS binding to Gao) at least 200%? Consider CC(=O)c1ccc(S(=O)(=O)N2CC(=O)NC23CCNCC3)cc1 [Compound C0086M]
true

Is MOR agonist activity ([35S]GTPgS binding to Gao) at least 200%? Consider O=S(=O)(c1cccc2cccnc12)N1CCC2(CC1)OCCN2S(=O)(=O)c1cccc2cccnc12 [Compound C0143M]
false

Is MOR agonist activity ([35S]GTPgS binding to Gao) at least 200%? Consider COc1ccc(S(=O)(=O)N2CCC3(CC2)NCCC(=O)N3)cc1 [Compound C0142M]
false

Is MOR agonist activity ([35S]GTPgS binding to Gao) at least 200%? Consider O=C1CN(C2CCc3ccccc3C2)C2(CCN(S(=O)(=O)c3ccccc3)CC2)N1 (stereo not drawn) [C0136M/ (P5)]
false

====

- TARGET OF ASSAY: mu opiate receptor (MOR) (Rattus norvegicus, UniProt P33535)
- Construct: from tissue; host or cells: striatum (membrane preparation)
- PROTOCOL: MOR agonist activity using [35S]GTPgS binding assay in striatal membranes
- Type: biochemical
- PARTICULARS: 0.1 μM compound as agonist; Series C-1 table
// reported MOR agonist activity ([35S]GTPgS binding to Gao) per item
Write the number in % without appending the unit.

- MOLECULE: "COc1ccc(S(=O)(=O)N2CCC3(OCCN3S(=O)(=O)c3ccc(OC)cc3)C3CCCCC32)cc1 (centres unmarked) [Compound C0144M]"
  TARGET OF ASSAY: "mu opiate receptor (MOR) (Rattus norvegicus, UniProt P33535)"
  SCALE UNIT: "%"
  DATA VALUE: 186.3
- MOLECULE: "CC(=O)c1ccc(C(=O)N2CCOC23CCN(S(=O)(=O)c2ccc(C(C)=O)cc2)CC3)cc1"
  TARGET OF ASSAY: "mu opiate receptor (MOR) (Rattus norvegicus, UniProt P33535)"
  SCALE UNIT: "%"
  DATA VALUE: 104.0
- MOLECULE: "O=S(=O)(c1ccc(Br)cc1C(F)(F)F)N1CCC2(CC1)OCCN2S(=O)(=O)c1ccc(Br)cc1C(F)(F)F"
  TARGET OF ASSAY: "mu opiate receptor (MOR) (Rattus norvegicus, UniProt P33535)"
  SCALE UNIT: "%"
  DATA VALUE: 107.2

Form field MOR agonist activity ([35S]GTPgS binding to Gao), entry O=S(=O)(c1ccc(C(F)(F)F)cc1Br)N1CCC2(CC1)OCCN2S(=O)(=O)c1ccc(C(F)(F)F)cc1Br : 276.3

====

// reported MOR agonist activity ([35S]GTPgS binding to Gao) per item
- TARGET OF ASSAY: mu opiate receptor (MOR) (Rattus norvegicus, UniProt P33535)
- Construct: from tissue; host or cells: striatum (membrane preparation)
- PROTOCOL: MOR agonist activity using [35S]GTPgS binding assay in striatal membranes
- Type: biochemical
- PARTICULARS: 1 μM + BFNA; Series C-1 table
Write the number in % without appending the unit.

As a guide, the following entries are already answered.
- MOLECULE: "O=C1CN(Cc2ccccc2)C2(CCN(S(=O)(=O)c3cc(Cl)cc(Cl)c3O)CC2)N1 [Compound C0138M]"
  TARGET OF ASSAY: "mu opiate receptor (MOR) (Rattus norvegicus, UniProt P33535)"
  DATA VALUE: 51.5
- MOLECULE: "O=S(=O)(c1ccc(Br)cc1Br)N1CCC2(CC1)OCCN2S(=O)(=O)c1ccc(Br)cc1Br"
  TARGET OF ASSAY: "mu opiate receptor (MOR) (Rattus norvegicus, UniProt P33535)"
  DATA VALUE: 114.2
- MOLECULE: "CS(=O)(=O)c1ccc(S(=O)(=O)N2CCC3(CC2)OCCN3S(=O)(=O)c2ccc(S(C)(=O)=O)cc2)cc1"
  TARGET OF ASSAY: "mu opiate receptor (MOR) (Rattus norvegicus, UniProt P33535)"
  DATA VALUE: 26.4
- MOLECULE: "COC(=O)c1ccc(S(=O)(=O)N2CCC3(CC2)OCCN3S(=O)(=O)c2ccc(C(=O)OC)cc2)cc1"
  TARGET OF ASSAY: "mu opiate receptor (MOR) (Rattus norvegicus, UniProt P33535)"
  DATA VALUE: 78.4
- MOLECULE: "N#Cc1ccccc1S(=O)(=O)N1CCC2(CC1)OCCN2S(=O)(=O)c1ccccc1C#N"
  TARGET OF ASSAY: "mu opiate receptor (MOR) (Rattus norvegicus, UniProt P33535)"
  DATA VALUE: 65.8

Bench note, mu opiate receptor (MOR) (Rattus norvegicus, UniProt P33535): O=S(=O)(c1ccc(F)cc1)N1CCC2(CC1)OCCN2S(=O)(=O)c1ccc(F)cc1 , MOR agonist activity ([35S]GTPgS binding to Gao) reads 16.6

Bench note, mu opiate receptor (MOR) (Rattus norvegicus, UniProt P33535): COc1ccc(S(=O)(=O)N2CCCC3(C2)OCCN3S(=O)(=O)c2ccc(OC)cc2)cc1 (centres unmarked) [Compound C0145M] , MOR agonist activity ([35S]GTPgS binding to Gao) reads 87.0

Bench note, mu opiate receptor (MOR) (Rattus norvegicus, UniProt P33535): COc1ccc(S(=O)(=O)N2CCC3(CC2)OCCN3S(=O)(=O)c2ccc(C(C)=O)cc2)cc1 , MOR agonist activity ([35S]GTPgS binding to Gao) reads 89.9

Bench note, mu opiate receptor (MOR) (Rattus norvegicus, UniProt P33535): CC(=O)c1ccc(C(=O)N2CCC3(CC2)OCCN3C(=O)c2ccc(C(C)=O)cc2)cc1 , MOR agonist activity ([35S]GTPgS binding to Gao) reads 43.5

Bench note, mu opiate receptor (MOR) (Rattus norvegicus, UniProt P33535): C[C@@H](NC(=O)[C@@H](N)Cc1ccc(O)cc1)C(=O)NCC(=O)N(C)[C@@H](Cc1ccccc1)C(=O)NCCO [DAMGO, [D-Ala2, N-MePhe4, Gly-ol]-enkephalin, reference compound] , MOR agonist activity ([35S]GTPgS binding to Gao) reads 53.2

Bench note, mu opiate receptor (MOR) (Rattus norvegicus, UniProt P33535): O=S(=O)(c1ccc(Br)c(C(F)(F)F)c1)N1CCC2(CC1)OCCN2S(=O)(=O)c1ccc(Br)c(C(F)(F)F)c1 , MOR agonist activity ([35S]GTPgS binding to Gao) reads 136.7

Bench note, mu opiate receptor (MOR) (Rattus norvegicus, UniProt P33535): Cc1ccc(S(=O)(=O)N2CCC3(CC2)OCCN3S(=O)(=O)c2ccc(C)cc2)cc1 , MOR agonist activity ([35S]GTPgS binding to Gao) reads 33.9

Bench note, mu opiate receptor (MOR) (Rattus norvegicus, UniProt P33535): O=S(=O)(c1csc2ccccc12)N1CCC2(CC1)OCCN2S(=O)(=O)c1csc2ccccc12 [Compound C0150M] , MOR agonist activity ([35S]GTPgS binding to Gao) reads 93.4

Bench note, mu opiate receptor (MOR) (Rattus norvegicus, UniProt P33535): CC(=O)Nc1ccc(S(=O)(=O)N2CCC3(CC2)OCCN3S(=O)(=O)c2ccc(NC(C)=O)cc2)cc1 , MOR agonist activity ([35S]GTPgS binding to Gao) reads 39.6

====

// reported MOR agonist activity ([35S]GTPgS binding to Gao) per item
- TARGET OF ASSAY: mu opiate receptor (MOR) (Rattus norvegicus)
- Construct: from tissue; host or cells: striatum (membrane preparation)
- PROTOCOL: MOR agonist activity using [35S]GTPgS binding assay in striatal membranes
- Format: biochemical
- PARTICULARS: 0.1 μM compound as agonist; Series C-1 table
Write the number in % without appending the unit.

- COMPOUND: "O=S(=O)(c1cccc(OC(F)(F)F)c1)N1CCC2(CC1)OCCN2S(=O)(=O)c1cccc(OC(F)(F)F)c1 [Compound C0005]"
  DATA VALUE: 180.4
- COMPOUND: "O=S(=O)(c1cccs1)N1CCC2(CC1)OCCN2S(=O)(=O)c1cccs1 [Compound C0141M]"
  DATA VALUE: 161.5
- COMPOUND: "O=C1CNC2(CCN(S(=O)(=O)c3ccc(O)cc3)CC2)N1Cc1ccccc1 [Compound C0148M]"
  DATA VALUE: 181.3
- COMPOUND: "O=S(=O)(c1ccc(Br)cc1)N1CCC2(CC1)OCCN2S(=O)(=O)c1ccc(Br)cc1 [Compound C0025]"
  DATA VALUE: 235.7
- COMPOUND: "Cc1ccccc1S(=O)(=O)N1CCC2(CC1)OCCN2S(=O)(=O)c1ccccc1C [Compound C0015]"
  DATA VALUE: 138.7
- COMPOUND: "CC(=O)Nc1ccc(S(=O)(=O)N2CCC3(CC2)OCCN3S(=O)(=O)c2ccc(NC(C)=O)cc2)cc1 [Compound C0013]"
  DATA VALUE: 156.6
- COMPOUND: "COc1ccc(S(=O)(=O)N2CCC3(CC2)OCCN3S(=O)(=O)c2ccc(OC)c(OC)c2)cc1OC [Compound C0049]"
  DATA VALUE: 106.6
- COMPOUND: "NS(=O)(=O)c1ccc(S(=O)(=O)N2CCC3(CC2)OCCN3S(=O)(=O)c2ccc(S(N)(=O)=O)cc2)cc1 [Compound C0034]"
  DATA VALUE: 103.6

Form field MOR agonist activity ([35S]GTPgS binding to Gao), entry O=C(c1ccc([N+](=O)[O-])cc1)N1CCC2(CC1)OCCN2S(=O)(=O)c1ccc([N+](=O)[O-])cc1 [Compound C0033] : 134.5

Form field MOR agonist activity ([35S]GTPgS binding to Gao), entry O=S(=O)(c1ccc(-c2ccccc2)cc1)N1CCC2(CC1)OCCN2S(=O)(=O)c1ccc(-c2ccccc2)cc1 [Compound C0010] : 136.5

Form field MOR agonist activity ([35S]GTPgS binding to Gao), entry COc1ccc(C(=O)N2CCC3(CC2)OCCN3C(=O)c2ccc(OC)cc2)cc1 [Compound C0017] : 153.8

Form field MOR agonist activity ([35S]GTPgS binding to Gao), entry CC(=O)c1ccc(S(=O)(=O)N2CCC3(CC2)NC(=O)CN3S(=O)(=O)c2ccc(C(C)=O)cc2)cc1 [Compound C0064] : 213.8

Form field MOR agonist activity ([35S]GTPgS binding to Gao), entry CC(=O)c1ccc(S(=O)(=O)N2CCC3(CC2)OCCN3S(=O)(=O)c2ccc(C(C)=O)cc2)cc1 [Compound C0011] : 217.0

Form field MOR agonist activity ([35S]GTPgS binding to Gao), entry Cc1ccc(S(=O)(=O)N2CCC3(CC2)OCCN3S(=O)(=O)c2ccc(C)cc2)cc1 [Compound C0001] : 129.3

Form field MOR agonist activity ([35S]GTPgS binding to Gao), entry O=S(=O)(c1ccc(Oc2ccccc2)cc1)N1CCC2(CC1)OCCN2S(=O)(=O)c1ccc(Oc2ccccc2)cc1 [Compound C0149M] : 209.8

Form field MOR agonist activity ([35S]GTPgS binding to Gao), entry O=S(=O)(c1ccc(C(F)(F)F)cc1)N1CCC2(CC1)OCCN2S(=O)(=O)c1ccc(C(F)(F)F)cc1 [Compound C0012] : 96.8

Form field MOR agonist activity ([35S]GTPgS binding to Gao), entry O=S(=O)(c1ccc(F)cc1)N1CCC2(CC1)OCCN2S(=O)(=O)c1ccc(F)cc1 [Compound C0029] : 175.4

Form field MOR agonist activity ([35S]GTPgS binding to Gao), entry CC(=O)c1ccc(S(=O)(=O)N2CCC3(CC2)NCC(=O)N3Cc2ccccc2)cc1 [Compound C0082M] : 228.1

Form field MOR agonist activity ([35S]GTPgS binding to Gao), entry C[C@@H](NC(=O)[C@@H](N)Cc1ccc(O)cc1)C(=O)NCC(=O)N(C)[C@@H](Cc1ccccc1)C(=O)NCCO [DAMGO, [D-Ala2, N-MePhe4, Gly-ol]-enkephalin, reference compound] : 168.5

Form field MOR agonist activity ([35S]GTPgS binding to Gao), entry COc1ccccc1S(=O)(=O)N1CCC2(CC1)OCCN2S(=O)(=O)c1ccccc1OC [Compound C0003] : 162.3

Form field MOR agonist activity ([35S]GTPgS binding to Gao), entry N#Cc1ccc(S(=O)(=O)N2CCC3(CC2)OCCN3S(=O)(=O)c2ccc(C#N)cc2)cc1 [Compound C0008] : 71.2

Form field MOR agonist activity ([35S]GTPgS binding to Gao), entry O=C(c1ccc([N+](=O)[O-])cc1)N1CCC2(CC1)OCCN2S(=O)(=O)c1ccc([N+](=O)[O-])cc1 [Compound C0022] : 194.3

Form field MOR agonist activity ([35S]GTPgS binding to Gao), entry CC(O)c1ccc(S(=O)(=O)N2CCC3(CC2)OCCN3S(=O)(=O)c2ccc(C(C)O)cc2)cc1 (stereo not shown) [Compound C0051] : 94.4

Form field MOR agonist activity ([35S]GTPgS binding to Gao), entry O=C(c1ccc([N+](=O)[O-])cc1)N1CCC2(CC1)OCCN2C(=O)c1ccc([N+](=O)[O-])cc1 [Compound C0032] : 145.4
